- system: ELK1 (Homo sapiens, UniProt P19419 1-428)
- Sequence: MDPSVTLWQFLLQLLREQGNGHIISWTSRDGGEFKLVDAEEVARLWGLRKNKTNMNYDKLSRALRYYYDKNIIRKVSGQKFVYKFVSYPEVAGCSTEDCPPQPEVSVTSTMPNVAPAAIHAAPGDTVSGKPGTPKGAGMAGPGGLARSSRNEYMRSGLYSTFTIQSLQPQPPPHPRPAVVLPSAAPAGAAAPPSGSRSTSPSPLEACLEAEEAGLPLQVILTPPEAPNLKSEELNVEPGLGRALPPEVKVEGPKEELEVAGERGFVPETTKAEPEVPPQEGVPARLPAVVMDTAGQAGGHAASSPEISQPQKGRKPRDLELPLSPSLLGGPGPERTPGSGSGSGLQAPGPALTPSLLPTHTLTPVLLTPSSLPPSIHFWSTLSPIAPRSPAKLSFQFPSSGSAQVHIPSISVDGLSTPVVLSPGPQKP
- assay-comment: custom PBM; custom protein-binding microarray; buffer, salt, pH and temperature not stated; high values mean tight binding
- cond: dsDNA, one strand shown
Whole data set: some 1,300 sequences, median “log fluorescence intensity” near 8.9, cut for the highest 2% near 13. The sample as a whole holds a higher share of the highest values than the screen did.
This listing pairs sequences with measured binding signal.

Previously resolved entries follow.
TGGAAGTGTCGTAAACGTCGGATATCCGGTTCTTCTGTCTTGATTCGCTTGACGCTGCTG; 12.5 log fluorescence intensity
CGGAAGTGTCGTAAACGTCGGATATCCGGTTCTTCTGTCTTGATTCGCTTGACGCTGCTG; 12.4 log fluorescence intensity
GGGAAGTGTCGTAAACGTCGGATATCCGGTTCTTCTGTCTTGATTCGCTTGACGCTGCTG; 12.6 log fluorescence intensity

Read the entry CGGAAGTGTCGTAAACGTTGGATATCCGGTTCTTCTGTCTTGATTCGCTTGACGCTGCTG and write its reported binding signal. 11.4 log fluorescence intensity

Read the entry AGGAAGTGTCGTAAACGTCGGATATCCGGTTCTTCTGTCTTGATTCGCTTGACGCTGCTG and write its reported binding signal. 12.3 log fluorescence intensity
